# Tested on: CGS 21680-induced catalepsy in mice
# experimental-protocol: Activity on CGS 21680-induced Catalepsy
# Type: in vivo, mouse (male ddY)
# assay-setup: 10 mg/kg oral, 10 animals, maximum 50 points; control 48
Counter-ions that a name gives are not always drawn.
endpoint-name: Total score (catalepsy)
// return just the number, without any unit appended

                                   compound            endpoint_name  numeric_value
0  Nc1nc(N2CCN(c3ccccn3)CC2)cc2nc(-c3ccco3)nn12 [Compound 93]  Total score (catalepsy)             10

Param item = C=CCN1CCN(c2cc3nc(-c4ccco4)nn3c(N)n2)CC1 [Compound 124] ; retrieve measured Total score (catalepsy).
12

Param item = Cc1ncc(CN2CCN(c3cc4nc(-c5ccco5)nn4c(N)n3)CC2)s1 [Compound 145] ; retrieve measured Total score (catalepsy).
3

Param item = CC(C)C(=O)c1cnc(N)n2nc(-c3ccco3)nc12 [Compound 153] ; retrieve measured Total score (catalepsy).
10

Param item = Nc1ncc(C(=O)N2CCCCC2)c2nc(-c3ccco3)nn12 [Compound 175] ; retrieve measured Total score (catalepsy).
12

Param item = Nc1nc(N2CCN(CC#Cc3ccccc3)CC2)cc2nc(-c3ccco3)nn12 [Compound 89, hydrochloride] ; retrieve measured Total score (catalepsy).
15
